# Tested on: Vero E6
# TEST_DESCRIPTION: relative viability EC50 (midpoint between 100% and the lowest measured viability); higher = less toxic
# RUN_PARAMETERS: 72 h
MEASURED_ATTRIBUTE: relative viability EC50 (nM)
Write down the numeric answer in nM and omit the unit.

Consider the reported relative viability EC50 for these molecules:
> print(dat)
                      smiles.representation       measured.attribute  reading.unit  observed.result
1  CCCCNc1ncc2c(-c3ccc(CN4CCN(C)CC4)cc3)cn([C@H]3CC[C@H](O)CC3)c2n1  relative viability EC50            nM             1160
2  CC[C@@]1(O)C(=O)OCc2c1cc1n(c2=O)Cc2cc3c(CN(C)C)c(O)ccc3nc2-1  relative viability EC50            nM              756
3  CCn1c(=O)c(-c2ccc(Cl)cc2Cl)cc2cnc(Nc3ccc(N4CCNCC4)c(F)c3)nc21  relative viability EC50            nM             2090

Could you share which relative viability EC50 value was measured for OCCNCCCOc1cccc(Cl)c1Cl ?
2990

###

# Test system: HepG2
# TEST_DESCRIPTION: cell viability relative to DMSO; higher = less toxic
# RUN_PARAMETERS: 72 h; 10000 nM
Label Yes when cell viability is strictly below 90%; otherwise label No.

> print(dat)
                                   compound  test.target  category.label
1  CCCCCCCCCCCCCCCCCCN(CCCCCCCCCCCCCCCCCC)CCCN(CCO)CCO [avridine]        HepG2              No
2  Cc1cccc(/C=N/Nc2cc(N3CCOCC3)n3nc(-c4ccncc4)cc3n2)c1 [APY0201]        HepG2             Yes
3               O=C(O)CCCO [SODIUM OXYBATE]        HepG2              No
4  CC(=O)N1CCC(C(=O)N(CCCN2CCC(Cc3ccc(C(N)=O)cc3)CC2)c2ccc(C)c(Cl)c2)CC1 [TAK-220]        HepG2              No
5  Cc1cc(-c2ccccc2)nnc1NCCN1CCOCC1 [minaprine]        HepG2              No
6  CC[C@H]1[C@@H](O)[C@@H]2[C@H](CC[C@]3(C)[C@@H]([C@H](C)CCOS(=O)(=O)O)CC[C@@H]23)[C@@]2(C)CC[C@@H](O)C[C@@H]12 [INT-767]        HepG2              No
7  COC(=O)c1ccc2c(c1)nc(NC(=O)c1ccccc1)n2CCCc1ccccc1 [BRD4770]        HepG2             Yes

Now look at this entry.
Does Nc1ccc(S(=O)(=O)Nc2ccnn2-c2ccccc2)cc1 [sulfaphenazole] have cell viability strictly under 90%?
No

###

Measured cell viability, listed per entry.
# Test system: Calu-3
# TEST_DESCRIPTION: cell viability relative to DMSO; higher = less toxic
# RUN_PARAMETERS: 72 h; 1000 nM
Where a name gives a salt, the structure may show the parent alone.
Answers without a unit are incomplete; give the number and then its unit.

MOLECULE	cell viability
CCN(CCO)CCCOc1ccc2c(Nc3cc(CC(=O)Nc4cccc(F)c4)[nH]n3)ncnc2c1 [barasertib-HQPA]	92.6%
CNC(=O)Nc1ccc(-c2nc(N3CC4CCC(C3)O4)c3cnn(C4CCC5(CC4)OCCO5)c3n2)cc1	28%
CCc1c(C(=O)NCCc2ccc(N3CCCCC3)cc2)[nH]c2ccc(Cl)cc12	100%
O=C(O)CCCO [SODIUM OXYBATE]	115%
CCN(CC)CCOC(=O)c1ccc(N)cc1 [procaine]	97%

Could you share which cell viability value was measured for CO[C@@H]1[C@H](N(C)C(=O)c2ccccc2)C[C@H]2O[C@]1(C)n1c3ccccc3c3c4c(c5c6ccccc6n2c5c31)C(=O)NC4 [midostaurin] ?
67.3%

Could you share which cell viability value was measured for CCCCNc1ncc2c(-c3ccc(CN4CCN(C)CC4)cc3)cn([C@H]3CC[C@H](O)CC3)c2n1 [UNC2025] ?
87.1%

Could you share which cell viability value was measured for CCC1(C)CC(=O)NC(=O)C1 [bemegride] ?
105%

Could you share which cell viability value was measured for CCn1cc(C(=O)O)c(=O)c2cnc(N3CCCC3)nc21 [piromidic-acid] ?
87%

Could you share which cell viability value was measured for O=C(O)Cc1ccc(OCc2ccccc2)c(Cl)c1 [benzofenac] ?
111%

Could you share which cell viability value was measured for C[C@]1(O)C[C@@H](c2nc(-c3ccc4ccc(-c5ccccc5)nc4c3)c3c(N)nccn32)C1 [linsitinib] ?
116%

Could you share which cell viability value was measured for Cn1cc(/C=C2\C(=O)Nc3cccnc32)c2ccccc21 ?
109%

Could you share which cell viability value was measured for O=c1cc(N2CCOCC2)oc2c1ccc1ccccc12 [NU-7026] ?
97.6%

Could you share which cell viability value was measured for CC(=O)N(C)c1cccc(-c2ccnc3c(C(=O)c4cccs4)cnn23)c1 [indiplon] ?
96.3%

Could you share which cell viability value was measured for CN[C@H]1CC[C@@H](c2ccc(Cl)c(Cl)c2)c2ccccc21 [SERTRALINE HYDROCHLORIDE] ?
103%

Could you share which cell viability value was measured for O=C(Nc1cccc(Cl)c1)c1ccccn1 ?
114%

Could you share which cell viability value was measured for Cc1ccccc1N1CCN(S(=O)(=O)C[C@]23CC[C@H](C[C@@H]2NC(=O)[C@@H](N)CCS(C)(=O)=O)C3(C)C)CC1 ?
105%

Could you share which cell viability value was measured for CC(C)(Sc1ccncc1-c1ccc(C#N)c2ccccc12)C(=O)O [verinurad] ?
113%

Could you share which cell viability value was measured for C=CC[N@@+]12CC[C@@]34c5ccccc5N5/C=C6/[C@H]7C[C@H]8[C@@]9(CC[N@@+]8(CC=C)C/C7=C/CO)c7ccccc7N(/C=C(/[C@@H](C[C@@H]31)/C(=C\CO)C2)[C@H]54)[C@@H]69 [alcuronium] ?
90.8%

Could you share which cell viability value was measured for O=C(Nc1ccccc1F)N[C@H]1N=C(c2ccccc2)c2ccccc2NC1=O [RSV604] ?
102%

Could you share which cell viability value was measured for C[C@@H](O)[C@H](N)C(=O)N1CCC[C@H]1C(=O)N1CCC[C@H]1C(=O)N[C@H](C(N)=O)[C@@H](C)O [rapastinel] ?
96.8%

Could you share which cell viability value was measured for CC[C@H]1[C@@H](O)[C@@H]2[C@H](CC[C@]3(C)[C@@H]([C@H](C)CCOS(=O)(=O)O)CC[C@@H]23)[C@@]2(C)CC[C@@H](O)C[C@@H]12 [INT-767] ?
105%

Could you share which cell viability value was measured for O=C(O)[C@H]1CN(CCCP(=O)(O)O)CCN1 [CPP] ?
89.4%

Could you share which cell viability value was measured for CCN(C)C(=O)Oc1cccc([C@H](C)N(C)C)c1 [rivastigmine] ?
98.3%

Could you share which cell viability value was measured for COC(=O)[C@H](c1ccccc1Cl)N1CCc2sccc2C1 [clopidogrel] ?
96.7%
